experimental_system: wt-AR (Homo sapiens, UniProt P10275)
Construct: expressed in transfected cells; host or cells: PC-3
Sequence (P10275 1-920): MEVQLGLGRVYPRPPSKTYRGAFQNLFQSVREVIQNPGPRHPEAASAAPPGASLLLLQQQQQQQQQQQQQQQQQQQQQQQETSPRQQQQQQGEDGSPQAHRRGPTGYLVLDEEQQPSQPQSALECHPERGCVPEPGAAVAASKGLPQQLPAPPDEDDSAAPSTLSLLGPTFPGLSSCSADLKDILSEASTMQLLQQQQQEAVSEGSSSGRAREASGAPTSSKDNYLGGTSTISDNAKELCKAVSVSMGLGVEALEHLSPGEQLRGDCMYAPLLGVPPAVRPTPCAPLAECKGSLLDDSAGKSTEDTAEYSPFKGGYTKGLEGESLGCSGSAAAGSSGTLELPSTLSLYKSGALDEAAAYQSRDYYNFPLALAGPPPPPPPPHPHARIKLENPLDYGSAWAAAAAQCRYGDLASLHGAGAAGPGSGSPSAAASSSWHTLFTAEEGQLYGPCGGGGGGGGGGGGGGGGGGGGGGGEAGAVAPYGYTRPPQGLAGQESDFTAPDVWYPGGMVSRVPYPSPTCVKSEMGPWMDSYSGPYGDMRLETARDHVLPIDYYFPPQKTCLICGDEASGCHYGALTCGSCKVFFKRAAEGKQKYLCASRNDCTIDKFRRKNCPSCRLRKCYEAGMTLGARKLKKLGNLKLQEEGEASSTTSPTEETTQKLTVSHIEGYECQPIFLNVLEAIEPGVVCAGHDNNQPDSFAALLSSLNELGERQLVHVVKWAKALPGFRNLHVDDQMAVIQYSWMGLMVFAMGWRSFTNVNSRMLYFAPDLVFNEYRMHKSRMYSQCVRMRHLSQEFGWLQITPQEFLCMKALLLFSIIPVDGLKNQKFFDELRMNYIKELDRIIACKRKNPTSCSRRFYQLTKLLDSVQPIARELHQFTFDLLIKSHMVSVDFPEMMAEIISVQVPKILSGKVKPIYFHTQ
test_name: mammalian two-hybrid (MM2H) assay, peptide interaction with wt-AR
Type: cell-based
experimental_conditions: PC-3 cells; ethanol; Gal-4 = 1
Ends that are not written are not given here.
Give wt-AR Ethanol, peptide-AR interaction in MM2H assay for every item shown.

Value of wt-AR Ethanol, peptide-AR interaction in MM2H assay reported for the substance C8-FY: phage display screened peptide GD-FKSFY-LATTW (GDFKSFYLATTW; also: fused to Gal4 DNA-binding domain, end not given here) is 17

Value of wt-AR Ethanol, peptide-AR interaction in MM2H assay reported for the substance CON-1: negative control peptide MYKP-HNHHQ-TSS (MYKPHNHHQTSS; also: fused to Gal4 DNA-binding domain (not in chain)) [reference compound] is 1

Value of wt-AR Ethanol, peptide-AR interaction in MM2H assay reported for the substance C315-FY: phage display screened peptide APSLNR-FATFY-H (APSLNRFATFYH; also: fused to Gal4 DNA-binding domain, end not given here) is 1

Value of wt-AR Ethanol, peptide-AR interaction in MM2H assay reported for the substance C411-FY: phage display screened peptide NDTPVK-FAHFY-H (NDTPVKFAHFYH; also: fused to Gal4 DNA-binding domain, end not given here) is 7

Value of wt-AR Ethanol, peptide-AR interaction in MM2H assay reported for the substance CA-10-FY: phage display screened peptide EHSM-FHSFY-VQG (EHSMFHSFYVQG; also: fused to Gal4 DNA-binding domain, end not given here) is 12

---

experimental_system: wt-AR (Homo sapiens)
Construct: expressed in transfected cells; host or cells: PC-3
Sequence (P10275 1-920): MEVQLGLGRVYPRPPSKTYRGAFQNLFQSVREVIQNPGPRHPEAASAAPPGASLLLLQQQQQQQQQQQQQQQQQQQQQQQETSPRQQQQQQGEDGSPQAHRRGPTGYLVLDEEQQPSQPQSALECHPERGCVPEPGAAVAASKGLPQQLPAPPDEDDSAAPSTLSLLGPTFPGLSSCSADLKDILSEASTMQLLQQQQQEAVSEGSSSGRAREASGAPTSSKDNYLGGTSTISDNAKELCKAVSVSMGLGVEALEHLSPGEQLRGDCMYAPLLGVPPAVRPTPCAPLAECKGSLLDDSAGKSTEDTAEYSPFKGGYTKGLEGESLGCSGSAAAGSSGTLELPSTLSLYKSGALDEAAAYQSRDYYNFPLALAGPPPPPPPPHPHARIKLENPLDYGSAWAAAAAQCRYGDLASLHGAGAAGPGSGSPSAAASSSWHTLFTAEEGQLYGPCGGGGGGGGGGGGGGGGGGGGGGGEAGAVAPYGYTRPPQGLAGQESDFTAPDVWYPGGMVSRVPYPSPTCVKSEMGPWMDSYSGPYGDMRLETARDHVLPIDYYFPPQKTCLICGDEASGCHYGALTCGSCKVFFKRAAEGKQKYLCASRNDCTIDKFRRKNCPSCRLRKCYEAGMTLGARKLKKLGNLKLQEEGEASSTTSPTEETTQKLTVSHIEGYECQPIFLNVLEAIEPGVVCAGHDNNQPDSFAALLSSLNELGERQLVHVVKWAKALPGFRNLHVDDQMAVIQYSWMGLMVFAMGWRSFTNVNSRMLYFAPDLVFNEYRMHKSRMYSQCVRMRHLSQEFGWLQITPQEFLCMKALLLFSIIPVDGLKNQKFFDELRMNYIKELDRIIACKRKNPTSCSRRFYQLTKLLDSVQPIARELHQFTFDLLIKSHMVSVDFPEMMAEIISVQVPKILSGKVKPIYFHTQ
test_name: mammalian two-hybrid (MM2H) assay, peptide interaction with wt-AR
Format: cell-based
experimental_conditions: PC-3 cells; DHT = 10 nM; Gal-4 = 1
Ends that are not written are not given here.
Give wt-AR DHT, peptide-AR interaction in MM2H assay for every item shown.
Answer with the value's number alone.

Value of wt-AR DHT, peptide-AR interaction in MM2H assay reported for the substance C8-FY: phage display screened peptide GD-FKSFY-LATTW (GDFKSFYLATTW; also: fused to Gal4 DNA-binding domain, end not given here) is 484

Value of wt-AR DHT, peptide-AR interaction in MM2H assay reported for the substance C4-FY: phage display screened peptide SPL-FSSFY-HART (SPLFSSFYHART; also: fused to Gal4 DNA-binding domain, end not given here) is 340

---

Give W741L-AR Ethanol, peptide-AR interaction in MM2H assay for every item shown.
experimental_system: W741L-AR (Homo sapiens, UniProt P10275, W742L)
Construct: expressed in transfected cells; host or cells: PC-3
Sequence (P10275 1-920 W742L): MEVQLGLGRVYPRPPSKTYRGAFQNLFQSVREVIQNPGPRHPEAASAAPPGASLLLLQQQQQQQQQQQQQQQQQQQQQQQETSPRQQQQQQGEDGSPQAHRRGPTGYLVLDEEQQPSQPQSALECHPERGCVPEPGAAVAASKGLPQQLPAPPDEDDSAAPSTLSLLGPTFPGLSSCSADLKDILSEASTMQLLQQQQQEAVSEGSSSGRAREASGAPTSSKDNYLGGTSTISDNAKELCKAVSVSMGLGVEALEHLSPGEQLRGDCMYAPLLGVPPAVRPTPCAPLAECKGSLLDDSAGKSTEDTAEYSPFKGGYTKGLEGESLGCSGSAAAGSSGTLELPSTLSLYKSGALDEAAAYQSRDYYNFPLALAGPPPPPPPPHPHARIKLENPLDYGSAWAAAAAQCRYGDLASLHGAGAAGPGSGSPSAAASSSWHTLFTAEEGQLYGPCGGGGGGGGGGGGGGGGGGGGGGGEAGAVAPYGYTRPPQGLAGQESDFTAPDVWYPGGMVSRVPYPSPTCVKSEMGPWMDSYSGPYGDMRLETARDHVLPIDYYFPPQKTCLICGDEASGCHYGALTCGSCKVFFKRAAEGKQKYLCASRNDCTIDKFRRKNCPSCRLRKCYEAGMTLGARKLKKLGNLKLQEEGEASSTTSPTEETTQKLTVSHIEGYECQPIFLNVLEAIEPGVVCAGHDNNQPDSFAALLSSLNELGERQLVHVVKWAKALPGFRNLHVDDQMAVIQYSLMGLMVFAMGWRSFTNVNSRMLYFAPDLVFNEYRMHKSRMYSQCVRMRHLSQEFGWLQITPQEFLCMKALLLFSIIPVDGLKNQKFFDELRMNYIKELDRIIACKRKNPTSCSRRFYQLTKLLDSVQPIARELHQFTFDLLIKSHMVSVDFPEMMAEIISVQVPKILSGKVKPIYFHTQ
test_name: mammalian two-hybrid (MM2H) assay, peptide interaction with W741L-AR
Assay type: cell-based
experimental_conditions: PC-3 cells; ethanol; Gal-4 = 1
Description: Using the phage display technique, we observed enrichment of FxxFY motif-containing peptides in CDX-W741L AR LBD screening. Peptide-AR interactions were further validated with the mammalian two-hybrid assay. […] The majority of these peptides additionally interacted with W741L-AR in the presence of bicalutamide. Protein database searches led to the identification of receptor-interacting protein kinase-1 (RIPK1) as a FxxFY motif-containing protein (^285FRPFY^289). […]
Ends that are not written are not given here.
Answer with the value's number alone.

C412-FY: phage display screened peptide APSDTY-FQRFY-R (APSDTYFQRFYR; also: fused to Gal4 DNA-binding domain, end not given here) tested on W741L-AR (Homo sapiens, UniProt P10275, W742L) gave W741L-AR Ethanol, peptide-AR interaction in MM2H assay: 1

C414-FY: phage display screened peptide NPSSM-FEKFY-LR (NPSSMFEKFYLR; also: fused to Gal4 DNA-binding domain, end not given here) tested on W741L-AR (Homo sapiens, UniProt P10275, W742L) gave W741L-AR Ethanol, peptide-AR interaction in MM2H assay: 2

#3-18: positive control peptide NTNA-FSRLF-YPS (NTNAFSRLFYPS; also: fused to Gal4 DNA-binding domain, end not given here) [reference compound] tested on W741L-AR (Homo sapiens, UniProt P10275, W742L) gave W741L-AR Ethanol, peptide-AR interaction in MM2H assay: 9

CA-10-FY: phage display screened peptide EHSM-FHSFY-VQG (EHSMFHSFYVQG; also: fused to Gal4 DNA-binding domain, end not given here) tested on W741L-AR (Homo sapiens, UniProt P10275, W742L) gave W741L-AR Ethanol, peptide-AR interaction in MM2H assay: 4

CON-1: negative control peptide MYKP-HNHHQ-TSS (MYKPHNHHQTSS; also: fused to Gal4 DNA-binding domain (not in chain)) [reference compound] tested on W741L-AR (Homo sapiens, UniProt P10275, W742L) gave W741L-AR Ethanol, peptide-AR interaction in MM2H assay: 1

RIP-p: short peptide of novel AR coregulator candidate RIPK1, GIEEK-FRPFY-LSQLE (GIEEKFRPFYLSQLE; also: fused to Gal4 DNA-binding domain (not in chain)) tested on W741L-AR (Homo sapiens, UniProt P10275, W742L) gave W741L-AR Ethanol, peptide-AR interaction in MM2H assay: 12

C1-FY: phage display screened peptide SYT-FNQFY-YSTA (SYTFNQFYYSTA; also: fused to Gal4 DNA-binding domain, end not given here) tested on W741L-AR (Homo sapiens, UniProt P10275, W742L) gave W741L-AR Ethanol, peptide-AR interaction in MM2H assay: 8

C4-FY: phage display screened peptide SPL-FSSFY-HART (SPLFSSFYHART; also: fused to Gal4 DNA-binding domain, end not given here) tested on W741L-AR (Homo sapiens, UniProt P10275, W742L) gave W741L-AR Ethanol, peptide-AR interaction in MM2H assay: 1

C315-FY: phage display screened peptide APSLNR-FATFY-H (APSLNRFATFYH; also: fused to Gal4 DNA-binding domain, end not given here) tested on W741L-AR (Homo sapiens, UniProt P10275, W742L) gave W741L-AR Ethanol, peptide-AR interaction in MM2H assay: 1
